The origin of these recorded values is paper PMC3794980.

Entries and their measured pIC50 follow.
molecular target: DRB1*0401 (Homo sapiens, UniProt P01903+P01911, A100K/A169T/F76Y/I96L/K127E/L162R/M171V/N62H/P40V/Q125Y/R42H/S133A/S149N/S66Y/V115G/V209L/W38E); test: biochemical
pIC50: −log10 of the molar value.
RECORDED_ENDPOINT: pIC50

MOLECULE	READOUT_VALUE
CC[C@H](C)[C@H](NC(=O)[C@@H]1CCCN1C(=O)[C@H](CC(C)C)NC(=O)CNC(=O)[C@@H](N)CCCCN)C(=O)N[C@@H](CCCNC(=N)N)C(=O)N[C@@H](Cc1ccc(O)cc1)C(=O)N[C@@H](CCC(N)=O)C(=O)N[C@H](C(=O)N[C@H](C(=O)N[C@@H](C)C(=O)N[C@H](C(=O)N[C@@H](CCCCN)C(=O)N[C@@H](CO)C(=O)N[C@@H](CCC(=O)O)C(=O)O)[C@@H](C)O)[C@@H](C)O)[C@@H](C)O [NS3 237-251]	7.89
CC[C@H](C)[C@H](NC(=O)[C@H](CC(C)C)NC(=O)[C@H](CCCCN)NC(=O)CN)C(=O)N[C@@H](Cc1c[nH]cn1)C(=O)N[C@@H](CCC(=O)O)C(=O)N[C@@H](Cc1c[nH]c2ccccc12)C(=O)N[C@@H](CS)C(=O)N[C@@H](CS)C(=O)N[C@@H](CCCNC(=N)N)C(=O)N[C@@H](CO)C(=O)N[C@@H](CS)C(=O)N[C@H](C(=O)N[C@@H](CC(C)C)C(=O)N1CCC[C@H]1C(=O)O)[C@@H](C)O [NS1 305-319]	5.75
CC[C@H](C)[C@H](NC(=O)[C@H](C)N)C(=O)N[C@@H](CCC(N)=O)C(=O)N[C@@H](CCC(N)=O)C(=O)N[C@H](C(=O)N[C@@H](CCCNC(=N)N)C(=O)N[C@@H](CO)C(=O)N[C@@H](CC(C)C)C(=O)N[C@H](C(=O)NCC(=O)N[C@@H](CC(N)=O)C(=O)N[C@@H](CCC(=O)O)C(=O)N[C@@H](CCC(=O)O)C(=O)N[C@@H](Cc1ccccc1)C(=O)N[C@@H](CC(C)C)C(=O)N[C@@H](CC(=O)O)C(=O)N[C@@H](Cc1ccc(O)cc1)C(=O)O)[C@@H](C)CC)C(C)C [NS5 866-882]	7.92
CC[C@H](C)[C@H](NC(=O)[C@H](C)NC(=O)[C@H](CC(N)=O)NC(=O)[C@H](CO)NC(=O)[C@H](C)NC(=O)[C@H](CC(C)C)NC(=O)[C@H](CCCNC(=N)N)NC(=O)[C@H](CC(C)C)NC(=O)[C@H](CC(=O)O)NC(=O)[C@H](CCCNC(=N)N)NC(=O)[C@@H](N)CCCNC(=N)N)C(=O)N[C@@H](CS)C(=O)N[C@@H](CO)C(=O)N[C@@H](C)C(=O)N[C@H](C(=O)N1CCC[C@H]1C(=O)N[C@H](C(=O)O)C(C)C)C(C)C [NS5 769-785]	8.44
CC[C@H](C)[C@H](NC(=O)[C@H](Cc1c[nH]c2ccccc12)NC(=O)[C@H](Cc1ccc(O)cc1)NC(=O)CNC(=O)[C@H](CCSC)NC(=O)[C@H](CC(=O)O)NC(=O)[C@H](C)NC(=O)[C@H](Cc1c[nH]cn1)NC(=O)[C@@H](NC(=O)[C@H](C)N)C(C)C)C(=O)N[C@@H](CCC(=O)O)C(=O)N[C@@H](CO)C(=O)N[C@@H](CCC(N)=O)C(=O)N[C@@H](CCCCN)C(=O)N[C@@H](CC(N)=O)C(=O)O [NS1 193-207]	5.45
